target: rat GCGR (full-length, on transiently transfected HEK293 reporter cells) (rat, UniProt P30082 27-485); experiment: cell-based or functional assay
Sequence (P30082 27-485 limits assumed): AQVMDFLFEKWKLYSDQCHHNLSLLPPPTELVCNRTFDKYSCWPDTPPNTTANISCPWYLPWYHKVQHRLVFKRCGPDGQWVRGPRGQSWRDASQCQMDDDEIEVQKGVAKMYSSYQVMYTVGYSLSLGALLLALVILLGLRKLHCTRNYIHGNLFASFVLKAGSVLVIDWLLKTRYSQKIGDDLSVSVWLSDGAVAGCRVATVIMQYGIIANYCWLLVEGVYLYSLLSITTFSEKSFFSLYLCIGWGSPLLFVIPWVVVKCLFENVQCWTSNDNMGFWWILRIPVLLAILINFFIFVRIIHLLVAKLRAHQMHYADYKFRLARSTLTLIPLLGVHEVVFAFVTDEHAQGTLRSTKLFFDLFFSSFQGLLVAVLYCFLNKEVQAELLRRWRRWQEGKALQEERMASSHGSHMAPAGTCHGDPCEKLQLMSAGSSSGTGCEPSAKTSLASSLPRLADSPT
measurement_name: IC50, inhibition of 100 pM GCG-stimulated luciferase activity, rat GCGR reporter cells (nM)
Field: numeric (nM). Do not append units.

Example entries and their recorded answers appear below.
Query :: Requested field: IC50, inhibition of 100 pM GCG-stimulated luciferase activity, rat GCGR reporter cells. Item: H4H1339P (antibody, V domains shown, Fully human anti-GCGR antibody; the controls are called isotype-matched hIgG4) VH: EVQLVESGGGMVQPGGSLRLSCAASGFTSSNYDMHWVRQATGKGLEWVSSIDTAGDTYYPDSVKGRFIISRENAKNSLYLQMNSLRAGDTAVYYCTREPRNYEILTGHYHYHGMDIWGQGTTVTVS VL: AIQMTQSPSSLSASVGDRVTITCRASQAIRNDLGWYQQKPGKAPKLLIYTAFSLQSGVPSRFSGSKSGTDFTLTISSLQPEDFATYYCLQDYTNPRTFGQGTKVEIK
Result :: 0.97

Query :: Try H4H1327P (antibody, V domains shown, also called anti-GCGR (hIgG4) antibody designated H4H1327P) VH: EVQLVESGGGLVQPGGSLRLSCAASGFTFSNYLMNWVRQAPGKGLEWLANIQEDGIEKYYVDSVKGRFTISRDNAKNSLYLQMNSLRAEDTAVYYCAREPSHYDILTGYDYYYGMDVWGQGTTVTVS VL: DIQMTQSPSSLSASVGDRVTITCRASQGIRNDLGWYQQKPGKAPKRLIYAASSLQSGVPSRFSGSGSGTEFILTVSSLQPEDFATYYCLQYNSNPFTFGPGTKVDIK next.
Result :: 0.88

Continuing:
Query :: Requested field: IC50, inhibition of 100 pM GCG-stimulated luciferase activity, rat GCGR reporter cells. Item: H4H1328P (antibody, V domains shown, Fully human anti-GCGR antibody; the controls are called isotype-matched hIgG4) VH: EVQLVESGGALVQPGGSLRLSCTASGFTFSNYDMHWVRQTTGKGLEWISAIDTAGDTYYPGSVKGRFTVSRENAKNSFYLQMNSLRAGDTAVYYCAREGKYYDILTGDYHYYGMDVWGQGTTVTVS VL: DIQMTQSPSSLSASVGDRVTITCRASQGIRNDLGWYQQKPGKAPKRLIYATSSLQSGVPSRFSGSGSGTEFTLTISSLQPEDFATYYCLQHNSYPLTFGGGTKLEIK
Result :: 0.93

Query :: Try H4H1321P (antibody, V domains shown, Fully human anti-GCGR antibody; the controls are called isotype-matched hIgG4) VH: QVQLVESGGGVVQPGRSLRLSCAASGFTFSSYDMHWVRQAPGKGLEWVAVISSDGRDKYYVDSVKGRFTISRDNSKNTLYLQMNSLRAEDTAVYYCAKEMVYYDILTGYHNYYGMDVWGQGTTVTVS VL: DIQMTQSPSSLSASVGDRVTITCRASQGINNYLAWFQQKPGKAPKSLIHTASSLQSGVPSKFSGSGSGTDFTLTISSLQPEDFATYYCQQYNTYPLTFGGGTKVEIK next.
Result :: 1.21

Query :: Try H4H1331P (antibody, V domains shown, Fully human anti-GCGR antibody; the controls are called isotype-matched hIgG4) VH: QVQLVESGGGVVQPGRSLRLSCAASGFTFSNFGMHWVRQAPGKGLEWVAVIWFDEIDKYYADSVKGRFTISRDNSKNTLYPQMNSLRAEDTAVYYCAREDYDILTGYYYAMDVWGQGTTVTVS VL: DIQMTQSPSSLSASVGDRVTITCRASQGIKNDLGWYQQKPGKAPKRLIYAASRLQSGVPSRFSGSGSGTEFTLTISSLQPEDFGTYYCLQHNSHPTFGQGTKVEIK next.
Result :: 3.87
